Would you mind telling me the reported CC50 of each entry?
Test system: HT29 cells
Experiment: cells
Report only the number, with the unit nM understood.

Record O=C1c2cccc3cc([N+](=O)[O-])cc(c23)C(=O)N1CCCN1CCN(CCCNc2ccc3ncn4c5ccccc5c(=O)c2c34)CC1 ; system HT29 cells; CC50 = 65

Record O=C1c2cccc3cc([N+](=O)[O-])cc(c23)C(=O)N1CCCN1CCN(CCCNc2ccc3ncn4c5ccc(F)cc5c(=O)c2c34)CC1 ; system HT29 cells; CC50 = 35

###

System: HL60 cells
Assay: cells
Assay type: cell-based
Conditions: HL60, 96 h incubation; read-out: IC50 - drug concentration which causes 50% cell growth inhibition
measured-endpoint: pIC50
Note: pIC50 values are expressed as the negative base-10 logarithm of concentration in M.

Given item O=C1c2cccc3cc([N+](=O)[O-])cc(c23)C(=O)N1CCCN1CCN(CCCNc2ccc3ncn4c5ccc(F)cc5c(=O)c2c34)CC1 , the value recorded as its pIC50 is 8.46

Given item Nc1cc2c3c(cccc3c1)C(=O)N(CCCN1CCN(CCCNc3ccc4ncn5c6ccc(F)cc6c(=O)c3c45)CC1)C2=O , the value recorded as its pIC50 is 8.40

Given item Nc1cc2c3c(cccc3c1)C(=O)N(CCCN1CCN(CCCNc3ccc4ncn5c6ccccc6c(=O)c3c45)CC1)C2=O , the value recorded as its pIC50 is 8.30

Given item CN(CCCNc1ccc2ncn3c4ccccc4c(=O)c1c23)CCCN1C(=O)c2cccc3cc([N+](=O)[O-])cc(c23)C1=O , the value recorded as its pIC50 is 6.92

Given item O=C1c2cccc3cc([N+](=O)[O-])cc(c23)C(=O)N1CCCN1CCN(CCCNc2ccc3ncn4c5ccccc5c(=O)c2c34)CC1 , the value recorded as its pIC50 is 8.46

###

System: MCF7 cells
Assay: cells
Format: cell-based
Would you mind telling me the reported CC50 of each entry?

Given item Nc1cc2c3c(cccc3c1)C(=O)N(CCCN1CCN(CCCNc3ccc4ncn5c6ccc(F)cc6c(=O)c3c45)CC1)C2=O [Example 8] , the value recorded as its CC50 is > 1 µM

Given item O=C1c2cccc3cc([N+](=O)[O-])cc(c23)C(=O)N1CCCN1CCN(CCCNc2ccc3ncn4c5ccccc5c(=O)c2c34)CC1 [Example 2] , the value recorded as its CC50 is > 1 µM

Given item O=C1c2cccc3cc([N+](=O)[O-])cc(c23)C(=O)N1CCCN1CCN(CCCNc2ccc3ncn4c5ccc(F)cc5c(=O)c2c34)CC1 [Example 4] , the value recorded as its CC50 is > 1 µM

###

System: MELSK2 cells
Experiment: cells
Settings: read-out: LC50 - drug concentration which causes 50% cell death; MELSK2, 96 h incubation
measured-endpoint: CC50 (nM)
Report only the number, with the unit nM understood.

Given item Nc1cc2c3c(cccc3c1)C(=O)N(CCCN1CCN(CCCNc3ccc4ncn5c6ccccc6c(=O)c3c45)CC1)C2=O [Example 6] , the value recorded as its CC50 is 750

###

Would you mind telling me the reported CC50 of each entry?
Tested on: HCT116 cells
Experiment: cells
Report only the number, with the unit nM understood.

Given item O=C1c2cccc3cc([N+](=O)[O-])cc(c23)C(=O)N1CCCN1CCN(CCCNc2ccc3ncn4c5ccc(F)cc5c(=O)c2c34)CC1 [Example 4] , the value recorded as its CC50 is 35

Given item O=C1c2cccc3cc([N+](=O)[O-])cc(c23)C(=O)N1CCCN1CCN(CCCNc2ccc3ncn4c5ccccc5c(=O)c2c34)CC1 [Example 2] , the value recorded as its CC50 is 32

Given item Nc1cc2c3c(cccc3c1)C(=O)N(CCCN1CCN(CCCNc3ccc4ncn5c6ccc(F)cc6c(=O)c3c45)CC1)C2=O [Example 8] , the value recorded as its CC50 is 230

###

Tested on: A549 cells
Assay: cells
Description: Cancer Cell Lines. Human colon carcinoma HCT116 and HT29, human melanoma MELSK2, human lung cancer A549, human leukemia HL60 and human breast cancer MCF7 cells were purchased from the American Type Culture Collection (Rockville, Md.). Human pancreatic tumor cell lines 6.03 and 10.05 were a gift from Dr. Elizabeth Jaffe, Johns Hopkins University. In Vitro Cytotoxicity Studies. […] The absorbance of the wells was determined by a Microplate Reader at 540 nm for CelITiter96™ and 490 for SRB. […]
measured-endpoint: CC50 (µM)
Report only the number, with the unit µM understood.

Given item O=C1c2cccc3cc([N+](=O)[O-])cc(c23)C(=O)N1CCCN1CCN(CCCNc2ccc3ncn4c5ccccc5c(=O)c2c34)CC1 , the value recorded as its CC50 is 0.035

Given item Nc1cc2c3c(cccc3c1)C(=O)N(CCCN1CCN(CCCNc3ccc4ncn5c6ccc(F)cc6c(=O)c3c45)CC1)C2=O , the value recorded as its CC50 is 0.15

Given item O=C1c2cccc3cc([N+](=O)[O-])cc(c23)C(=O)N1CCCN1CCN(CCCNc2ccc3ncn4c5ccc(F)cc5c(=O)c2c34)CC1 , the value recorded as its CC50 is 0.035

###

Test system: MELSK2 cells
Assay: cells
Would you mind telling me the reported CC50 of each entry?
Report only the number, with the unit µM understood.

Given item O=C1c2cccc3cc([N+](=O)[O-])cc(c23)C(=O)N1CCCN1CCN(CCCNc2ccc3ncn4c5ccccc5c(=O)c2c34)CC1 , the value recorded as its CC50 is 0.06

Given item O=C1c2cccc3cc([N+](=O)[O-])cc(c23)C(=O)N1CCCN1CCN(CCCNc2ccc3ncn4c5ccc(F)cc5c(=O)c2c34)CC1 , the value recorded as its CC50 is 0.07

###

Test system: HT29 cells
Test: cells
Conditions: read-out: LC50 - drug concentration which causes 50% cell death; HT29, 96 h incubation
measured-endpoint: CC50 (nM)
Report only the number, with the unit nM understood.

Given item CN(CCCNc1ccc2ncn3c4ccccc4c(=O)c1c23)CCCN1C(=O)c2cccc3cc([N+](=O)[O-])cc(c23)C1=O , the value recorded as its CC50 is 400

Given item Nc1cc2c3c(cccc3c1)C(=O)N(CCCN1CCN(CCCNc3ccc4ncn5c6ccccc6c(=O)c3c45)CC1)C2=O , the value recorded as its CC50 is 750

###

System: A549 cells
Experiment: cells
Conditions: Homo sapiens, A549, 96 h, read-out: IC50 - drug concentration which causes 50% cell growth inhibition
measured-endpoint: pIC50
Note: pIC50 values are expressed as the negative base-10 logarithm of concentration in M.

Given item CN(C)CCN1C(=O)c2cccc3cc([N+](=O)[O-])cc(c23)C1=O [Mitonafide, mitonafide, reference compound] , the value recorded as its pIC50 is 7.19

###

Would you mind telling me the reported CC50 of each entry?
Test system: HL60 cells
Assay: cells
Format: cell-based
Conditions: HL60, 96 h incubation; read-out: LC50 - drug concentration which causes 50% cell death
Description: In Vitro Cytotoxicity Studies.
Reply with the number, then its unit.

Given item CN(CCCNc1ccc2ncn3c4ccccc4c(=O)c1c23)CCCN1C(=O)c2cccc3cc([N+](=O)[O-])cc(c23)C1=O , the value recorded as its CC50 is 500 nM

Given item Nc1cc2c3c(cccc3c1)C(=O)N(CCCN1CCN(CCCNc3ccc4ncn5c6ccccc6c(=O)c3c45)CC1)C2=O , the value recorded as its CC50 is 450 nM
